Assignment: determine reported Kd for the given binders.
system_name: T1, recombinant YFV E protein (soluble E, sE; YFV Asibi strain) (Yellow fever virus, Asibi strain, UniProt Q6DV88 286-678)
T1 construct: also called YFV E antigen; YFV E monomer
test: BLI monovalent (IgG on tip)
# value in nM; strip the unit string

Reported Kd for ADI-49145 (antibody, V domains shown, full-length IgG; also called Antibody Number 69) VH: EVQLLESGGGLVQPGGSLRLSCAASGFIFSDYYMDWVRQTPGKGPEWVGRITNRPNSYTTEYAASVKGRFTISRDDSTNSLFLHMNSLKTEDTAVYYCTRITGDRYWYLDLWGRGTLVTVSS VL: DIVLTQSPSSLSASVGDRVTITCRASQSINNYLNWYQQKPGKAPNLLIFGASTLQSGVPSRFTGSGSGTVFTLTISSLQRDDFVIYYCQQTYSASGSFGQGTKVEIK : what is it?
1.05

// same read-out, input: ADI-45090 (antibody, V domains shown, full-length IgG; also called Antibody Number 4) VH: EVQLVESGGGLVQPGRPLRLSCAASGFAFSSYGMHWVRQAPGKGLEWVALIRFDGTIKYYADSVKGRFTISRDNAKNTLYLQMSSLRAEDTAVYYCARDLEVGAEYLYYHYGMDVWGQGTTVTVSS VL: QPVLTQPPSASGTPGQRVTIFCSGSRSNIGTYTINWYQKLPGTAPKLLIYSNNRGPSGVPDRFSGSQSGTSASLAISGLQPEDEADYYCAAWDDSLNGWVFGGGTKVTVL
2.11

// same read-out, input: ADI-49561 (antibody, V domains shown, full-length IgG; also called Antibody Number 76) VH: EVQLLESGGGVVQPGRSLRLSCVASGFTFSSYGMHWVRQAPGKGLEWVALISYDGSNKYYADSVKGRFTISRDNSKNTLYLQMNSLRAEDTAVYYCAKDQCGGDCTADYWGQGTLVTVSS VL: QSVLTQPASVSGSPGQSITISCTGTSSDVGGDKYVSWYQQHPGKAPKPMIYEVSNRPSGVSNRFSGSKSGNTASLTISGLQAEDEADYYCSSYTSSSTPVVFGGGTKLTVL
242
